test target: T1, human Angiopoietin-2 (human, UniProt O15123 19-496)
T1 construct: Mostly bought recombinant protein (R&D Systems 623-AM/CF, 623-AN; biotinylated BT623) or supernatant of transfected 293F cells; also called Ang-2; rhAng-2
T1 sequence: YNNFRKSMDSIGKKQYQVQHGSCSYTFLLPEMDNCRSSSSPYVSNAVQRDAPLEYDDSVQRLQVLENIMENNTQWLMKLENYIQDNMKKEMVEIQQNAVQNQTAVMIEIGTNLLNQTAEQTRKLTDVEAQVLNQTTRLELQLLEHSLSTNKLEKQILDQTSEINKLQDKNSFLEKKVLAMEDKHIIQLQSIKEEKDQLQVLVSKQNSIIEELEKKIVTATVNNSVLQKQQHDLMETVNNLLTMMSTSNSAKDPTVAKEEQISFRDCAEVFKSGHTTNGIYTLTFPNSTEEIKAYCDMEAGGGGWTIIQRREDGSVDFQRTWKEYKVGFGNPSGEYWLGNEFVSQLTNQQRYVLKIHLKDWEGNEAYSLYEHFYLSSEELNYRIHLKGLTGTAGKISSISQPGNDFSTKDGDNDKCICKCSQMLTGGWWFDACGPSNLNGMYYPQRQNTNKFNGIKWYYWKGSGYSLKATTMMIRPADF
experimental details: competition ELISA: biotin-Ang-2 on coated Tie2/Fc
Mark class 1 only for EC50 values smaller than 0.2 µg/mL; exact matches and larger values are class 0.

Past entries and their recorded results:
(Q) Threshold test, EC50 < 0.2 µg/mL: mAb 5.88.3 (antibody, V domains shown, Human hybridoma IgG (XenoMouse); also called x5.88) VH: EVQMVESGGGLVQPGGSLRLSCAASGFTLRSYWMSWVRQAPGKGLEWVANIKEDGSEKYHVDSVKGRFTISRDNAENSLFLQMSSLRAEDTAVYYCARDMEASAGLFDYWGQGTLVTVSS VL: EIVMTQSPATLSVSPGERAILSCRASQSISSNLAWYQQKPGQAPRLLIYGASTRATGIPARFSGSGSGTEFTLTISSLQSEDFAVYYCQQYNYWWTFGQGTKVEIKR
(A) class 1

(Q) Threshold test, EC50 < 0.2 µg/mL: mAb 5.86.1 (antibody, V domains shown, Human hybridoma IgG (XenoMouse); also called x5.86) VH: QVQLVQSGAEVKKPGASVKVSCKASGYTFTGYHMYWVRQAPGQGLEWLGWINPNSGGTNYAQKFQGRVTMTRDTSISTAYMELSRLRSDDTAVYYCVRDQGIAAAGPFDYWCQGTLVTVSS VL: DIRMTQSPSSLSASVGDRVTITCRASQRISTYLNWYQQKPGKAPKFLIYAASSLQSGVPSRFSGSGSGTDFTLTISSLQPEDFATYYCQQSYTTPFTFGPGTKVDIKR
(A) class 1

(Q) Threshold test, EC50 < 0.2 µg/mL: mAb 3.3.2 (antibody, V domains shown, Human hybridoma IgG (XenoMouse); also called 3.3.1; x3.3) VH: EVQLVESGGGLVQPGGSLRLSCAVSGFTFSSYWMSWVRQAPGKGLEWVANIKQDGSEKYYVDSVKGRFTISRDNAKNSLYLQMNSLRAEDTAVYYCARDQGIAVAGPFDYWGQGTLVTVSS VL: EIVMTQSPATLSVSPGERATLSCRASQTVSSDLAWYQQKPGQAPRLLIYGASIRATGIPARFSGSGSGTEFTLTISSLQSEDFAVYSCQQYYNWWTFGQGTKVEIKR
(A) class 1

(Q) Threshold test, EC50 < 0.2 µg/mL: mAb 3.31.2 (antibody, V domains shown, Human hybridoma IgG (XenoMouse); also called x3.31) VH: EVQLVESGGGLVQPGGSLRLSCAASGFTFSSYWMSWVRQAPGKGLEWVANIKQDGSDKYYVDSVKGRFTISRDNAKNSLYLRMNSLRAEDTAVFYCARDMGSGWFDYWGQGTLVTVSS VL: EVVMTQSPATLSVSPGERATLSCRASQSVGSNLAWYQQKPGQAPRLLIYGASTRATGIPARFSGSGSGTEFTLTISSLQSEDFAVYCCQQYNHWWTFGQGTKVEIKR
(A) class 1

(Q) Threshold test, EC50 < 0.2 µg/mL: mAb 5.28.1 (antibody, V domains shown, Human hybridoma IgG (XenoMouse); also called x5.28) VH: EVQLVESGGIVVQPGGSLRLSCAASGFTFDDYTMHWVRQTPGKGLEWVSLISWDGGSTYYADSVKGRFTISRDNSKNSLYLQMNSLRTEDTALYYCAKDIDIAVAGTGFDHWGQGTLVTVSS VL: EIVMTQSPATLSVSPGERATLSCRASQSVTSNLAWYQQKPGQAPRLLIYGALIRATGIPARFSGSGSGTEFTLTISSLQSEDFAVYYCQQYNNWPFTFGPGTKVDIKR
(A) class 0

Then there is this binder:
(Q) Threshold test, EC50 < 0.2 µg/mL: mAb 3.19.3 (antibody, V domains shown, Human hybridoma IgG (XenoMouse); also called x3.19) VH: QVQLVESGGGVVQPGRSLRLSCAASGFTFTNYGMHWGRQAPGKGLEWVAVISHDGNNKYYVDSVKGRFTISRDNSKNTLYLQMNSLRAEDTAVYYCAREGIDFWSGLNWFDPWGQGTLVTVSS VL: EIVLTQSPGTLSLSPGERATLSCRASQSITGSYLAWYQQKPGQAPRLLICGASSWATGIPDRFSGSGSGTDFTLTISRLEPEDFAVYYCQQYSSSPITFGQGTRLEIKR
(A) class 0
